Values were extracted from patent US10085993B2.

testName: Solubility at different pH
testParameters: pH 6.8, aqueous buffer
Structures can show the parent of a compound that is named as a salt.
reportedEndpoint: solubility (µg/mL)

[
  {
    "molecule": "CNC(=O)c1ccc(-c2cnc3ncc(Cc4ccc5ncccc5c4)n3n2)cc1F [dihydrochloride]",
    "valueObserved": 79.3
  }
]

###

testName: Solubility at different pH
testParameters: pH 1, simulated gastric fluid
Counter-ions that a name gives are not always drawn.
reportedEndpoint: solubility (µg/mL)

[
  {
    "molecule": "CNC(=O)c1ccc(-c2cnc3ncc(Cc4ccc5ncccc5c4)n3n2)cc1F [dihydrochloride]",
    "valueObserved": 7200
  }
]
